# Experimental Protocol: inhibitors of TNFa-induced NFkB p65 translocation, primary screen, imaging, HUVEC, MLSMR starter and 10KST1 sets (AID 438);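 further: compound added about 3h40 before a 20 min TNFalpha stimulation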;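 on inhibition: signal is the nuclear over cytoplasmic p65 intensity ratio per well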
# Condition Notes: HUVEC TNFa-induced p65 nuclear translocation; at 2 µM, stronger effect = higher value, 0% TNFa-plus-vehicle, 100% no-TNFa wells
Observable: inhibition (%)
Write the value in % as a bare number.

# annotated cases, reported inhibition shown
1. O=C(CSc1ncnc2c1cnn2Cc1ccccc1)Nc1ccc2c(c1)OCCO2 ... 0.9
2. CCOc1cccc(OCCCCn2ccnc2)c1 ... -3.1
3. CC(NC(=O)Nc1ncccn1)(C(F)(F)F)C(F)(F)F ... -8.4
4. Cc1ccc(N2CCN(S(=O)(=O)N(C)C)CC2)c(C)c1 ... -2.4
5. Nc1ccc2oc(-c3ccccc3Cl)nc2c1 ... -0.2
6. c1ccc2c(c1)[nH]c1c(N3CCSCC3)ncnc12 ... -4.6
7. CC(C)CCNC(=O)Cn1c(NCCC(C)C)nc2c1c(=O)n(C)c(=O)n2C ... -8.3
8. O=C(CCc1ccccc1)Nc1ccncc1 ... 1
9. O=C(CCNS(=O)(=O)c1ccc(Cl)cc1)NCc1ccccn1 ... -21.1
10. CCC(=O)NC1(C(F)(F)F)C(=O)Nc2c1c(=O)[nH]c(=O)n2Cc1ccco1 (centres undefined) ... -2.8

Per the records, this compound ( CCN(CC)CCN1C(=O)Cn2c(C)c(C)c3cccc1c32 ) has inhibition equal to -6.7

inhibition reading for COc1ccccc1CN1CCCC(C(=O)N(C)Cc2ccccc2)C1 (centres undefined) : -3.4

The compound listed as Cc1cc(=O)oc(C)c1C(=O)Nc1ccc2nsnc2c1 has a reported inhibition of -2

# inhibition of CCOC(=O)c1sc(NC(=O)C2CC=CCC2C(=O)O)nc1C (centres undefined) = 2.5

###

# Experimental Protocol: DUSP6 inhibitors restoring Erk phosphorylation by chemical complementation, primary imaging in DUSP6-transfected HeLa (AID 609)
# Condition Notes: HeLa MKP-3 transfected, phospho-Erk imaging KS statistic; measured here: cell density z-score; at 10 µM; cells stimulated with TPA for 15 min
Rule: satisfied for z-score not less than -0.1, not satisfied for anything less.

As a guide, the following entries are already answered.
1. Cc1cc(=O)n(CCC(=O)O)c2ccccc12 ... satisfied
2. CCOc1ccc(-c2nc(C#N)c(NCC(C)C)o2)cc1 ... not satisfied
3. COC(=O)c1ccccc1OCc1cccc(C)n1 ... satisfied

input: Hello, I need to know if Cn1c(=O)c2c(nc(NCc3ccc4c(c3)OCO4)n2Cc2ccccc2)n(C)c1=O has measured z-score not below -0.1. Thanks!
output: not satisfied

input: Would you say CCOC(=O)c1[nH]c2ccc(F)cc2c1NC(=O)CCN1CCSCC1 shows z-score at minimum -0.1?
output: not satisfied

input: Say whether CCc1nc(NCC2CCCO2)c(C#N)c2c1COC(C)(C)C2 (stereo unspecified) shows z-score of -0.1 or more.
output: not satisfied

###

# Experimental Protocol: DUSP6 inhibitors restoring Erk phosphorylation by chemical complementation, primary imaging in DUSP6-transfected HeLa (AID 609)
# Condition Notes: HeLa MKP-3 transfected, phospho-Erk imaging KS statistic; measured here: nuclear c-Myc green intensity z-score; at 10 µM; cells stimulated with TPA for 15 min
Quick rule: z-score of at least -0.1 means Fulfilled, below that means Not fulfilled.

input: # check: z-score of CCOC(=O)N1CCN(c2ncnc3c2cnn3-c2ccc(OC)cc2)CC1 is greater than or equal to -0.1
output: Not fulfilled

###

# Experimental Protocol: inhibitors of TNFa-induced NFkB p65 translocation, primary screen, imaging, HUVEC, MLSMR starter and 10KST1 sets (AID 438);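 further: compound added about 3h40 before a 20 min TNFalpha stimulation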
# Condition Notes: HUVEC TNFa-induced p65 nuclear translocation; measured here: nuclei count (cytotoxicity indicator), at 2.08 µM
In this section we review reported cell count values for a set of compounds.
Form rule: numeric answer, no unit written next to it.

Data point: COc1ccc(S(=O)(=O)N2CCC(C(=O)c3ccc4c(c3)OCCO4)CC2)cc1 ; cell count = 298

Value of measured cell count for the entry CCOC(=O)CSc1nnc(CCc2nc3ccccc3[nH]2)n1C : 349

Field cell count (entry O=C1CC(C2CCCO2)C(=O)N1Cc1ccccc1 (stereo not drawn) ) reads 418

Notebook: CCCN(CC1CC1)C(=O)Nc1ccccc1C , cell count read as 693

Entry under test: CC1CCN(CCCNC(=O)c2coc3nc4ccccc4nc23)CC1 . Its cell count was 311

// sample O=C1CCCN1CCCNc1ncnc2c1[nH]c1ccc(Cl)cc12 , its cell count was 465

cell count for COc1ccc2c(CC(=O)Nc3nnc(C4CC4)s3)coc2c1 is 286

Notebook: CC(C)N1C(=O)C2C(C(=O)NC3CCCCC3)C3C=CC2(O3)C1C(=O)NC1CCCC1 (stereo not drawn) , cell count read as 371

###

# Experimental Protocol: inhibitors of poly I:C-induced TLR3 signaling, primary screen, cell-based, poly I:C stimulus, luciferase, 10K MLSCN set (AID 602277)
# Condition Notes: HEK293-TLR3 RL24 IRF3 luciferase reporter, at 10 µM, stronger effect = higher value
inhibition values, listed per item
# unit: % | format: bare number

So for CCN(CC)c1ccc(NC(=O)CN2CCN(CC(=O)Nc3ccccc3F)CC2)cc1 , the logged inhibition turned out to be 19.4

Looking up CC(NC(=O)C1CCCN(S(=O)(=O)c2cccs2)C1)c1ccccc1 (configuration not stated) , I see its inhibition listed as 34.2

For reference, reported inhibition for COc1cc(NC(=O)Cc2ccccc2OC)cc(OC)c1 stands at -15

The recorded inhibition for entry Cc1cc(=O)n2nc(-c3ccccc3)sc2n1 equals -64.6

inhibition in this record for CCOC(=O)N1CCC(N2C(=O)c3ccc(C(=O)NCc4ccco4)cc3C2=O)CC1 : 26.2

What the record says about O=C1CC(N2CCN(C3CCc4ccccc4C3)CC2)C(=O)N1c1ccccc1 (configuration not stated) : inhibition is 28.1

The measured inhibition associated with COc1ccc(C2=NOC(C(=O)NC3CCCCC3)C2)cc1OC (configuration not stated) reads 20.1

What the record says about CCOC(=O)c1cc(CC)sc1NC(=O)CCC(=O)O : inhibition is 26.5

For record O=C(CCOc1ccccc1)NCc1ccccc1 the listed inhibition is 12.3

# inhibition of C/C=C(\CS(=O)(=O)c1ccccc1)S(=O)(=O)c1ccccc1 = 21.9

get_value(item= CCOC(=O)C(NC(C)=O)(NS(=O)(=O)c1ccccc1)C(F)(F)F (configuration not stated) , readout=inhibition) returns 14.2

###

# Test System: Voltage-gated potassium channel subunit beta-2 (Rattus norvegicus)
# Experimental Protocol: KvBeta enzyme negative modulators, primary screen, biochemical, NADPH fluorescence (AID 622);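 further: slope of raw intensity against log time taken from 70 to 1610 s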
# Condition Notes: recombinant KvBeta, 4-cyanobenzaldehyde reduction, at 10 µM, stronger effect = higher value
The source made the active and inactive calls.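 The calls were made as follows: active = fluorescence slope higher than the sample average by over 3 SD (cut at about -0.22 in these data, passing the limit was not always enough); inactive = the rest.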
Recorded measurements of fluorescence slope, one per entry

Past entries and their recorded results:
1) Cn1c(=O)n(CC(=O)OCc2ccccc2)c(=O)c2c1nc1n2CCCN1C1CCCCC1 ... -0.479 (inactive)
2) CCOC(=O)C1=C(N)OC2=C(C(=O)CC(C)(C)C2)C1c1ccco1 (stereo unspecified) ... -0.566 (inactive)
3) Cc1cc(N2C(=O)C(=O)/C(=C(/O)c3ccccc3)C2c2cccs2)no1 (stereo unspecified) ... -0.486 (inactive)
4) CCOC(=O)N1CCN(Cc2nc3c(c(=O)n(C)c(=O)n3C)n2Cc2ccccc2)CC1 ... -0.538 (inactive)
5) O=C(O)c1cc2sccc2s1 ... -0.465 (inactive)
6) COc1ccc(C(=O)Nc2cccc(C)c2)cc1S(=O)(=O)N1CCOCC1 ... -0.572 (inactive)
7) COc1ccc(OC)c(S(=O)(=O)NCCC2=CCCCC2)c1 ... -0.486 (inactive)
8) O=C(c1cnn2c1NC(c1ccco1)CC2C(F)(F)F)N1CCN(c2cccc(Cl)c2)CC1 (stereo unspecified) ... -0.382 (inactive)
9) c1ccc(-n2c(Cc3cccnc3)nc3cnccc32)cc1 ... -0.468 (inactive)
10) Cn1cc(Cl)nc1C(O)c1ccccc1 (stereo unspecified) ... -0.481 (inactive)

Now let's try a different one.
Here Cc1cc2c(C)nc(Cc3ccccc3)nc2o1 was tested on Voltage-gated potassium channel subunit beta-2 (Rattus norvegicus), and its fluorescence slope came to -0.438 (inactive)

###

# Experimental Protocol: inhibitors of E-selectin induction by TNFa, primary screen, imaging, HUVEC, immunofluorescence, MLSMR starter and 10KST1 sets (AID 487);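 further: signal is fraction of cell area covered by stained E-selectin grains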
# Condition Notes: HUVEC TNFalpha-induced E-selectin immunofluorescence imaging, at 2 µM; stronger effect = higher value
Observable: inhibition (%)
Give the value, in units of %, as a plain number.

Guide cases for inhibition, answers given:
1) CCN(CC)CCN1C(=O)C(=O)/C(=C(/O)c2c(C)[nH]c(C(=O)OC)c2C)C1c1ccc(OC)cc1 (stereo unspecified) ... -75.7
2) CCOC(=O)N1CCN(CC(=O)c2c(C)[nH]c3ccccc23)CC1 ... -113
3) Cc1ccc(-c2nc3cc(NC(=O)C(C)C)ccc3o2)cc1C ... -160
4) CCOC(=O)C(C)n1cnc2c(nnn2Cc2ccc(C)cc2)c1=O (stereo unspecified) ... -1.8
5) C=CCn1c(N)c(C(=O)Nc2ccccc2)c2nc3ccccc3nc21 ... -27.4
6) CCC(=O)Nc1nc(C)c(Oc2ccccc2)c(=O)[nH]1 ... 34.5
7) Cc1cc(C(=O)O)c(CSc2ncn[nH]2)o1 ... -48.6
8) CCc1ccc(N(CC(=O)NC2CCCC2)S(=O)(=O)c2c(C)noc2C)cc1 ... -48.7
9) Cc1ccc(CSC2=NCCN2C(=O)C2CC2)cc1 ... -26.8
10) Cc1nc(NCCO)c(C#N)c2c1COC(C)(C)C2 ... -147

Now let's try a different one.
Sure, the documented inhibition for CCOC(=O)Cn1nc(C)c2ccccc2c1=O is -43.5
